Origin of the recorded values: paper PMC5896380

# key: entry, value: kcat/KM
Target: cathepsin L (Homo sapiens, UniProt P07711)
Construct: made in house
Sequence (P07711 114-333): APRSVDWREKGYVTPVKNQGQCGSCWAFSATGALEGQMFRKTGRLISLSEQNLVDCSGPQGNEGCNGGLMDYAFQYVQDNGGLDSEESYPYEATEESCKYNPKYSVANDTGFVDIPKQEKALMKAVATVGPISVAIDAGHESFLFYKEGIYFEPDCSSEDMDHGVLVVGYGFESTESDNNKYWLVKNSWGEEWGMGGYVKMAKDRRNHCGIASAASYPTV
Assay: Kinetic parameters of ACC substrates with cathepsin L
Type: biochemical
Conditions: Fig. 4B; ACC substrates; 100 mM sodium acetate, 100 mM NaCl, 10 mM DTT, 1 mM EDTA, pH 5.5, 37 °C; cathepsin L 0.1–0.5 nM; average of at least three, SD below 15%
Description: All kinetic experiments were performed using fMax (Molecular Devices) and CLARIOStar (BMG LABTECH) spectrofluorimeters operating in kinetic mode using 96-well plates. ACC-labeled substrates were screened using 355 nm and 460 nm wavelengths (excitation and emission, respectively). […] Classic substrate velocity plots were analyzed according to Michaelis–Menten kinetics and a detailed protocol for the determination of kinetic parameters for ACC-tagged substrates is found elsewhere.[56] […]
Non-standard residues stand in square brackets, D forms with d. *: point of attachment. Phe(3-Cl) = N[C@@H](Cc1cccc(Cl)c1)C(=O)O; ACC = NC(=O)Cc1cc(=O)oc2cc(N*)ccc12; hArg = N=C(N)NCCCC[C@H](N)C(=O)O; ClZ = O=C(OCc1ccccc1Cl)*; Orn = NCCC[C@H](N)C(=O)O; Dab = NCC[C@H](N)C(=O)O; Dap = NC[C@H](N)C(=O)O; Mob = COc1ccc(C*)cc1; Meb = Cc1ccc(C*)cc1; OBn = c1ccc(CO*)cc1; Bn = c1ccc(C*)cc1

So, Ac-[Dap][Orn][Phe(3-Cl)]C(Meb)-{ACC} (SMILES CC(=O)N[C@@H](CN)C(=O)N[C@@H](CCCN)C(=O)N[C@@H](Cc1cccc(Cl)c1)C(=O)N[C@@H](CSCc1ccc(C)cc1)C(=O)Nc1ccc2c(CC(N)=O)cc(=O)oc2c1) ? Its kcat/KM was 41,660,000 M^-1s^-1

Next:
So, Ac-[Dap][Orn][Phe(3-Cl)]L-{ACC} (SMILES CC(=O)N[C@@H](CN)C(=O)N[C@@H](CCCN)C(=O)N[C@@H](Cc1cccc(Cl)c1)C(=O)N[C@@H](CC(C)C)C(=O)Nc1ccc2c(CC(N)=O)cc(=O)oc2c1) ? Its kcat/KM was 11,290,000 M^-1s^-1

So, Ac-[Dap][Orn][Phe(3-Cl)]C(Bn)-{ACC} (SMILES CC(=O)N[C@@H](CN)C(=O)N[C@@H](CCCN)C(=O)N[C@@H](Cc1cccc(Cl)c1)C(=O)N[C@@H](CSCc1ccccc1)C(=O)Nc1ccc2c(CC(N)=O)cc(=O)oc2c1) ? Its kcat/KM was 45,420,000 M^-1s^-1

So, Ac-[Dap][Orn][Phe(3-Cl)][hArg]-{ACC} (SMILES CC(=O)N[C@@H](CN)C(=O)N[C@@H](CCCN)C(=O)N[C@@H](Cc1cccc(Cl)c1)C(=O)N[C@@H](CCCCNC(=N)N)C(=O)Nc1ccc2c(CC(N)=O)cc(=O)oc2c1) ? Its kcat/KM was 30,500,000 M^-1s^-1

So, Ac-[Dap][Orn][Phe(3-Cl)]K(ClZ)-{ACC} (SMILES CC(=O)N[C@@H](CN)C(=O)N[C@@H](CCCN)C(=O)N[C@@H](Cc1cccc(Cl)c1)C(=O)N[C@@H](CCCCNC(=O)OCc1ccccc1Cl)C(=O)Nc1ccc2c(CC(N)=O)cc(=O)oc2c1) ? Its kcat/KM was 29,280,000 M^-1s^-1

So, Ac-[Dap][Orn][Phe(3-Cl)]E(OBn)-{ACC} (SMILES CC(=O)N[C@@H](CN)C(=O)N[C@@H](CCCN)C(=O)N[C@@H](Cc1cccc(Cl)c1)C(=O)N[C@@H](CCC(=O)OCc1ccccc1)C(=O)Nc1ccc2c(CC(N)=O)cc(=O)oc2c1) ? Its kcat/KM was 34,270,000 M^-1s^-1

So, Ac-[Dap]R[Phe(3-Cl)]R-{ACC} (SMILES CC(=O)N[C@@H](CN)C(=O)N[C@@H](CCCNC(=N)N)C(=O)N[C@@H](Cc1cccc(Cl)c1)C(=O)N[C@@H](CCCNC(=N)N)C(=O)Nc1ccc2c(CC(N)=O)cc(=O)oc2c1) ? Its kcat/KM was 25,400,000 M^-1s^-1

So, Ac-[Dap][Orn][Phe(3-Cl)]C(Mob)-{ACC} (SMILES COc1ccc(CSC[C@H](NC(=O)[C@H](Cc2cccc(Cl)c2)NC(=O)[C@H](CCCN)NC(=O)[C@H](CN)NC(C)=O)C(=O)Nc2ccc3c(CC(N)=O)cc(=O)oc3c2)cc1) ? Its kcat/KM was 48,350,000 M^-1s^-1

So, Ac-[Dab]R[Phe(3-Cl)]R-{ACC} (SMILES CC(=O)N[C@@H](CCN)C(=O)N[C@@H](CCCNC(=N)N)C(=O)N[C@@H](Cc1cccc(Cl)c1)C(=O)N[C@@H](CCCNC(=N)N)C(=O)Nc1ccc2c(CC(N)=O)cc(=O)oc2c1) ? Its kcat/KM was 31,960,000 M^-1s^-1
